# Study Target: PDE5A1 (Homo sapiens)
# Construct: human recombinant PDE5A1 protein
# Assay Procedure: cAMP/cGMP-based PDE enzyme assay, recombinant protein
pIC50: −log10 of the molar value.
Measure: pIC50

>>> test_result("CCc1cc(C#N)cc2c(NCc3ccc(OC)c(Cl)c3)c(COCCF)cnc12")
8.73
